src = patent US10829473B2

- TESTED_TARGET: F508delCFTR (Homo sapiens, UniProt P13569, DEL508-508)
- Construct: expressed in transfected cells; host or cells: CFBE41o- human lung derived epithelial cells (CFBE41o-F508delCFTR-HRP), doxycycline-inducible
- Sequence (P13569 with tags, fused parts or gaps DEL508-508): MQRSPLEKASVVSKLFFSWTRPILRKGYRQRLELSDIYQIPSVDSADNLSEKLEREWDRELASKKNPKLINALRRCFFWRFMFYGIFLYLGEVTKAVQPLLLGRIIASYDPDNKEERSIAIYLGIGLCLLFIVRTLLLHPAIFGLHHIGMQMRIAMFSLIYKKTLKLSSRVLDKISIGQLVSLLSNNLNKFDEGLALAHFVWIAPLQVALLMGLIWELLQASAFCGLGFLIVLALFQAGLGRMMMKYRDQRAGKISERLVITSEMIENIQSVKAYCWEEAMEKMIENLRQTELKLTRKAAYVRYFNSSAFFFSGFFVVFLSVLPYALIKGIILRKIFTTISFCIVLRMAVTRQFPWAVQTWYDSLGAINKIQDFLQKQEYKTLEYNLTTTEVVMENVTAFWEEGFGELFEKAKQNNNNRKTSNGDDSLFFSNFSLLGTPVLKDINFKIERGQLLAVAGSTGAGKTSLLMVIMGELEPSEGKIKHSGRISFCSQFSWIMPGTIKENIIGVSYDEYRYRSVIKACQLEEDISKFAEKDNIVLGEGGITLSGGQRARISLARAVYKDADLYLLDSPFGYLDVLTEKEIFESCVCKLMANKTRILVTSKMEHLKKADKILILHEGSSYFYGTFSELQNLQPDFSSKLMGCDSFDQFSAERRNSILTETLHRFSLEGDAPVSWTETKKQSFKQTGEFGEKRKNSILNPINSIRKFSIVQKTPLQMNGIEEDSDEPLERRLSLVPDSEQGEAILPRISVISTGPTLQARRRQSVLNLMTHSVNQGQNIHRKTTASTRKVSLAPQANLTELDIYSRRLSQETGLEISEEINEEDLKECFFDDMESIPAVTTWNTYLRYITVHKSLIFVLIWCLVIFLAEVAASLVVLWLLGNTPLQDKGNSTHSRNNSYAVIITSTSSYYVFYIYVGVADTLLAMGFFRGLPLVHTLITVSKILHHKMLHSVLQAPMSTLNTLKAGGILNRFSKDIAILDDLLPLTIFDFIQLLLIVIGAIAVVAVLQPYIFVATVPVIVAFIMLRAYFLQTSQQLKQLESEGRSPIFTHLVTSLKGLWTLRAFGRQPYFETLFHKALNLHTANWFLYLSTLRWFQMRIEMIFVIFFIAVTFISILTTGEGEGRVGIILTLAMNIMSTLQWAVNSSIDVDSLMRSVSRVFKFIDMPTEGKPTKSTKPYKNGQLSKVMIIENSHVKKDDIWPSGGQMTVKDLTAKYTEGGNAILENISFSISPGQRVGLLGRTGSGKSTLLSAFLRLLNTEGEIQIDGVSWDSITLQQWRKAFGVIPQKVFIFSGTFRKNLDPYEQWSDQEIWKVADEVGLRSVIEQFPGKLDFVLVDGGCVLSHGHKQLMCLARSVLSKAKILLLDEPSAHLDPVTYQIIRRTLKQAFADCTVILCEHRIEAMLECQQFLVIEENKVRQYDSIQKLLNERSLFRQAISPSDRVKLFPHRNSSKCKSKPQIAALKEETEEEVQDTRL
- TEST_METHOD_NOTES: Cell Surface Expression-Horse Radish Peroxidase (CSE-HRP) Assay;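 note: % of on-plate positive control chromenyl benzoic acid corrector at 2 or 3 µM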
- Type: cell-based
- CONDITIONS_USED: test compound without co-corrector; maximum at any tested concentration; read-out: Maximum % activity (without co-corrector)
MEASURED_ENDPOINT: Emax

> print(dat)
                                    molecule  recorded.value
 1  Cc1ccc2c(S(=O)(=O)NC(=O)C3(c4cc(C5CC5)cnc4N4CCOCC4)CC3)cccc2n1      50 to 150%
 2  Cc1cnc(N2CCCC2)cc1C1(C(=O)NS(=O)(=O)c2cccc3ncccc23)CC1      50 to 150%
 3  COCCOc1cnc(OC)cc1C1(C(=O)NS(=O)(=O)c2cccc3ncccc23)CC1      50 to 150%
 4  CCc1cnc(OC(C)C)c(C2(C(=O)NS(=O)(=O)c3cccc4nc(C)ccc34)CC2)c1          > 150%
 5  Cc1ccc2c(S(=O)(=O)NC(=O)C3(c4cc(C5CC5)cnc4OC(C)C)CC3)cccc2n1          > 150%
 6  CCc1ccc(OC(C)C)c(C2(C(=O)NS(=O)(=O)c3cccc4[nH]ccc34)CC2)n1          > 150%
 7  COCCOc1ncc(C2CCC2)cc1C1(C(=O)NS(=O)(=O)c2cccc3[nH]ccc23)CC1          > 150%
 8  CC(C)Oc1ncc(CO)cc1C1(C(=O)NS(=O)(=O)c2cccc3ncccc23)CC1           < 50%
 9  Cc1cnc(F)cc1C1(C(=O)NS(=O)(=O)c2cccc3ncccc23)CC1           < 50%
10  CCc1cnc(OCC2CC2)c(C2(C(=O)NS(=O)(=O)c3cccc4ncccc34)CC2)c1          > 150%
11  CCc1cnc(OC(C)C)c(C2(C(=O)NS(=O)(=O)c3cccc4[nH]ccc34)CC2)c1          > 150%
12  CC(C)Oc1ccc(C2(C(=O)NS(=O)(=O)c3cccc4ncccc34)CC2)c(N(C)C)n1      50 to 150%
13  Cc1ccc2c(S(=O)(=O)NC(=O)C3(c4cc(C5CC5)cnc4OCC(C)C)CC3)cccc2n1          > 150%
14  COc1cnc(OCC2CC2)c(C2(C(=O)NS(=O)(=O)c3cccc4ncccc34)CC2)c1          > 150%
15  CC(C)COc1ncc(N2CCCC2)cc1C1(C(=O)NS(=O)(=O)c2cccc3ncccc23)CC1          > 150%
16  COc1cnc(OC(C)C)c(C2(C(=O)NS(=O)(=O)c3cccc4nc(C)ccc34)CC2)c1          > 150%
17  COc1cc(C2(C(=O)NS(=O)(=O)c3cccc4nc(C)ccc34)CC2)c(OC(F)F)cn1      50 to 150%
18  O=C(NS(=O)(=O)c1cccc2ncccc12)C1(c2cc(C3CC3)cnc2C(F)(F)F)CC1      50 to 150%
19  Cc1cnc(OCC2CC2)c(C2(C(=O)NS(=O)(=O)c3cccc4ncccc34)CC2)c1          > 150%
20  COCCOc1ncc(C)cc1C1(C(=O)NS(=O)(=O)c2cccc3[nH]ccc23)CC1          > 150%
21  COCCOc1cnc(OC)cc1C1(C(=O)NS(=O)(=O)c2cccc3nc(C)ccc23)CC1      50 to 150%
22  Cc1cnc(N(C)C)cc1C1(C(=O)NS(=O)(=O)c2cccc3ncccc23)CC1      50 to 150%
23  O=C(NS(=O)(=O)c1cccc2ccccc12)C1(c2cc(Cl)cnc2C(F)(F)F)CC1      50 to 150%
24  Cc1ccc2c(S(=O)(=O)NC(=O)C3(c4cc(N5CCC5)cnc4OC(C)C)CC3)cccc2n1          > 150%
